Tested on: Staphylococcus aureus AUR58 7005
Experiment: MIC panel of challenge pathogens (CLSI)
Format: cell-based
Conditions: AUR587005; Staphylococcus aureus AUR58 7005; read-out: 100% inhibition
Consider the following molecules and their measured MIC readings.
Your answer is read as µg/mL, so omit the unit and give the number.

Worked cases, MIC given:
> print(dat)
                                   molecule  endpoint.label  val
1  Clc1ccc(Cc2sc(-c3nnn[nH]3)cc2-c2cccc(CC3CCCC3)c2)cc1 [DNM0610]             MIC    2
2  Cc1cc(Cl)ccc1-c1cc(-c2nnn[nH]2)sc1-c1ccc(C)c2ccccc12 [DNM0576]             MIC  0.5

INPUT: Query: MIC; subject: Clc1ccc(-c2cc(-c3nnn[nH]3)sc2-c2ccc(Cl)cc2)cc1 [DNM0487]
OUTPUT: 1

INPUT: Give the measured MIC of CCCCc1cccc(-c2cc(-c3nnn[nH]3)sc2Cc2ccc(Cl)cc2)c1 [DNM0606] .
OUTPUT: 1
